Biological target: recombinant human GM-CSF (Peprotech) (human, UniProt P04141 18-144)
Sequence (P04141 18-144 limits assumed): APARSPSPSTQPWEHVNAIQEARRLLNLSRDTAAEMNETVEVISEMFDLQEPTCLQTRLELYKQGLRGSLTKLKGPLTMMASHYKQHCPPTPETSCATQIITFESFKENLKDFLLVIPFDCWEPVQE
Assay: cell-based or functional assay
Listing of entries alongside the reported EC50, TF-1 cell growth (3H-thymidine) with GM-CSF.
Respond with the bare value in nM.

{"binder": "hGM4/34 (antibody, V domains shown) VH: QVQLQESGGGLVKPGGSLKLSCAASGFAFSAYDMSWVRQTPDKRLELVAYISSGGSSFYYPDTVKGRFTISRDNAKNTLYLQMSSLKSEDTAMYYCTRHLGFDYWGQGTMVTVSS VL: DVVMTQSPLSLPVTPGEPASISCRSSQSLVNSNGNTYLHWYLQKPGQSPQLLIYKVSNRFSGVPDRFSGSGSGTDFTLKISRVEAEDVGVYYCSQSTHVPPTFGGGTKVEIK", "reading": 0.22}
{"binder": "hGM4/11 (antibody, V domains shown) VH: QVQLQESGGGLVKPGGSLKLSCAASGFAFSAYDMSWVRQTPDKRLEWVAYISSGGSSFYYPDTVKGRFTISRDNAKNTLYLQMSSLKSEDTAMYYCARHLGFDYWGQGTMVTVSS VL: DVVMTQSPLSLPVTPGEPASISCRSSQSLVNSNGNTYLHWYLQKPGQSPQLLIYKVSNRFSGVPDRFSGSGSGTDFTLKISRVEAEDVGVYYCSQSTHVPPTFGGGTKVEIK", "reading": 5.13}

Requested field: EC50, TF-1 cell growth (3H-thymidine) with GM-CSF. Item: murine monoclonal antibody 4K21-O11-E14 (antibody, V domains shown, Murine hybridoma antibody (ECACC 07051601); also called 4K21-O11-E14 (mouse); mAb 4K21) VH: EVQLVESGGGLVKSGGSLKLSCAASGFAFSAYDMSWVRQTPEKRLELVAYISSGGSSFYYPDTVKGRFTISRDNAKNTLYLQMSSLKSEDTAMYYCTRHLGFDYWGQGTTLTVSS VL: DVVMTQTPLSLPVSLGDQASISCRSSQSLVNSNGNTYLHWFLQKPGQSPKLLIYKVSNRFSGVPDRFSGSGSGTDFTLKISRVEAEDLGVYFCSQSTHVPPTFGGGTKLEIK
0.311
